- target: Microphthalmia-associated transcription factor (Homo sapiens)
- assay.info: MITF inhibitors, potency by titration, dose response, biochemical, AlphaScreen, human (AID 1259371)
- condition.context: AlphaScreen biochemical MITF assay, signal inhibition
Activity calls are given as the source filed them. How the calls were made is not given here.
readout.label: IC50

Solved entries:
                                   compound    result
0  Nc1cccc(N2C(=O)c3cc(S(=O)O)cc4c(N)c(S(=O)O)cc(c34)C2=O)c1  inactive
1  O=C1N[C@H](Cc2ccccc2)C(=O)N2CCN(C(=O)NC3CCCCC3)C[C@H]12    873 nM
2  CC(C)N(C(=O)COC(=O)c1cc(-c2ccco2)nc2ccccc12)C(C)C  inactive
3                            Nc1cc(Br)cnc1N   61.9 nM
4  O=C(/C=C/c1ccco1)Nc1cccc(NC(=O)/C=C/c2ccco2)n1   10.4 nM

May I ask what IC50 has been recorded for Cc1ccc(CCC(=O)Nc2ccc(-c3cn4c5c(nnc4n3)CCCC5)cc2)o1 ?
306 nM

May I ask what IC50 has been recorded for O=S(=O)(c1ccccc1C(F)(F)F)N1CCC(c2nc3ccccc3[nH]2)CC1 ?
470 nM

May I ask what IC50 has been recorded for Cc1ccc2[nH]c(=O)c(=O)[nH]c2c1 ?
> 12100 nM (inactive)

May I ask what IC50 has been recorded for O=C(Nc1ccc(-c2ccncc2)c(C(F)(F)F)c1)C1COc2ccccc2O1 (stereo unspecified) ?
inactive

May I ask what IC50 has been recorded for CCOC(=O)C1CCCN(Cc2cccc(Br)c2)C1 (stereo unspecified) ?
> 6480 nM (inactive)

May I ask what IC50 has been recorded for Cc1ccc(C)n1C(CC(=O)O)c1ccsc1 (stereo unspecified) ?
255 nM

###

- target: Microphthalmia-associated transcription factor (Homo sapiens) (UniProt O75030)
- Sequence (O75030 whole entry, looked up): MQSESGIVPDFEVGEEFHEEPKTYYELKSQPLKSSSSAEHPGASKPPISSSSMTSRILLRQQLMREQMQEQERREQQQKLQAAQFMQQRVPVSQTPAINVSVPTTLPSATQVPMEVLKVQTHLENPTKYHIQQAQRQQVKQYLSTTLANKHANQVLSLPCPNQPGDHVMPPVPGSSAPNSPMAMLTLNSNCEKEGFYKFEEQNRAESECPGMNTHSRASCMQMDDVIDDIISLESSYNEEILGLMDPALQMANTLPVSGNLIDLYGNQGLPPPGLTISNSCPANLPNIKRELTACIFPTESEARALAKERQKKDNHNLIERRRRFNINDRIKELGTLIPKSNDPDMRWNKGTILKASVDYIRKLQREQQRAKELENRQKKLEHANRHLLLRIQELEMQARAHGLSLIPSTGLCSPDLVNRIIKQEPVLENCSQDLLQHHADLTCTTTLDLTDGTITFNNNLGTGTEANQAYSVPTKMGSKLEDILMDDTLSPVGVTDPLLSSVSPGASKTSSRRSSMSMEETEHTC
- assay.info: MITF inhibitors, potency by titration, dose response, biochemical, AlphaScreen, human (AID 1259371)
- condition.context: AlphaScreen biochemical MITF assay, signal inhibition
The source made the active and inactive calls. The rule behind the calls is not given here.
Hi! Could you answer with just one of these? class 1 = active, class 0 = inactive

# example entries with known answers
>>> print(df.to_string())
                                   compound  category
0  COc1ccc(OC)c(NC(=O)c2cc3ccc(O)cc3oc2=Nc2ccc(C(=O)O)cc2)c1   class 1
1      NC(=O)CSc1ccc(C(N)=O)cc1[N+](=O)[O-]   class 0
2  C=C1C(C(=O)NCc2ccco2)C1C(=O)NCc1ccco1 (configuration not stated)   class 1

# fetch the recorded call for CC(C)N(C)CCOC(=O)/C=C/c1ccco1 here
class 0

# fetch the recorded call for O=C(O)c1cccc(-n2cccc2/C=C2/NC(=O)N(c3ccc(Cl)cc3)C2=O)c1 here
class 1

# fetch the recorded call for CC(=O)NCC(c1cccs1)S(=O)(=O)c1ccc(C)cc1 (configuration not stated) here
class 0

# fetch the recorded call for Cc1ccc(N[C@@H]2OC[C@@H](O)C(O)C2O)cc1N[C@@H]1OC[C@@H](O)C(O)C1O (some centres not stated) here
class 0

# fetch the recorded call for COCCCNC(=O)/C(C#N)=C/c1ccc(OCC(=O)O)c(OC)c1 here
class 0

###

- target: UniProtKB O75030
- assay.info: MITF inhibitors, potency by titration, dose response, biochemical, AlphaScreen, human (AID 1259371)
- condition.context: AlphaScreen biochemical MITF assay, signal inhibition
Calls of active or inactive are those of the source. No rule for the calls is given here.
readout.label: IC50

Solved entries:
In [3]: df
Out[3]:
                                   molecule            target                result
0  Cc1nc(C)n(-c2ccc(Nc3cc(-n4cc(N(c5cccnc5)c5cccnc5)cn4)ccn3)cc2)n1  UniProtKB O75030                864 nM
1       O=C(O)c1ccc(CNC(=O)c2cocc2C(=O)O)o1  UniProtKB O75030  > 7320 nM (inactive)
2     O=C(NCCc1ccc(O)cc1)c1ccnc(-c2cccs2)c1  UniProtKB O75030              inactive
3               NC1(C(Cl)(Cl)Cl)Oc2ccccc2O1  UniProtKB O75030                232 nM
4              O=C1c2c(O)cccc2Cc2cccc(O)c21  UniProtKB O75030                232 nM
5  O=C(c1ccncc1)N1CCN(Cc2ccccc2[N+](=O)[O-])CC1  UniProtKB O75030  > 6130 nM (inactive)
6  COc1cc(N2CCOCC2)ccc1Nc1cc(Nc2ccccc2-n2cccn2)c(C(F)(F)F)cn1  UniProtKB O75030              inactive
7  Clc1ccc(CN2CCN(Cc3c[nH]c4ccccc34)CC2)cc1  UniProtKB O75030              inactive
8  CCCCn1c(=O)[nH]c(=O)c2c1nc(-c1ccc([N+](=O)[O-])o1)n2C  UniProtKB O75030               66.6 nM
9   S=c1[nH]nc(-c2ccncc2)n1/N=C/C=C/c1ccco1  UniProtKB O75030                207 nM

IC50 of COc1cc(C=Nc2ccc(N(C)C)cc2)cc(I)c1O on UniProtKB O75030?
> 6480 nM (inactive)

IC50 of O=c1[nH]cccc1-c1ccc(Nc2nccc(-c3ccc4nc(C5CC5)[nH]c(=O)c4c3)n2)cc1 on UniProtKB O75030?
inactive

IC50 of O=C(CN1C(=O)NC2(CCCCCC2)C1=O)NC(=O)NCc1ccco1 on UniProtKB O75030?
inactive

IC50 of O=C1N[C@@H](Cc2ccc(O)cc2)C(=O)N2CCN(C(=O)NCc3ccccc3)C[C@H]12 on UniProtKB O75030?
> 2160 nM (inactive)

IC50 of CC(C)[C@@H]1NC(=O)[C@H]2CN(C(=O)NCc3ccccc3)CCN2C1=O on UniProtKB O75030?
819 nM

IC50 of CCOc1cccc(OCC)c2c(C)[n+](C)c(C)c1-2 on UniProtKB O75030?
58.2 nM

IC50 of CN(C)[C@@H]1C(=O)C(C(=O)NCN2CCCC2)=C(O)[C@@]2(O)C(=O)C3=C(O)c4c(O)cccc4[C@@](C)(O)[C@H]3C[C@@H]12 on UniProtKB O75030?
425 nM
